molecular target: Metabotropic glutamate receptor 8 (Rattus norvegicus); experiment: mGluR8 Gi/Go-coupled signaling modulation – cell-based, rat, thallium flux, HTS, primary screen (AID 488969); details: HEK293 rat mGluR8, GIRK (G protein-gated inwardly rectifying potassium channel) thallium flux, FluoZin2; at 10 µM; stronger effect = higher value; submaximal glutamate (EC20) added with thallium
In all, about 110,000 compounds were measured (“z-score”: median about -0.1, highest 2% from about 2 on). The full list was thinned out, with the highest values kept by preference.
MEASUREMENT_LABEL: z-score
Output spec: single numeric token, no unit.

Here's what some known entries look like.
INSERT INTO results (compound, assay_system, experimental_value) VALUES
  ('Cc1ccc(NC(=O)c2ccc3c(c2)N(CC(=O)N2CCCCC2)C(=O)C(C)(C)O3)cc1', 'Metabotropic glutamate receptor 8 (Rattus norvegicus)', -0.4),
  ('O=C(Nc1ccc2oc(-c3cccnc3)nc2c1)c1ccco1', 'Metabotropic glutamate receptor 8 (Rattus norvegicus)', -0.851),
  ('CC(C)COP(=O)(c1ccc(N(C)C)cc1)C(Nc1ccccc1)c1ccccc1 (configuration not stated)', 'Metabotropic glutamate receptor 8 (Rattus norvegicus)', -0.803),
  ('COC(=O)C1(S(=O)(=O)c2cc(Br)cc3c2N(C(C)=O)CC3)CC1', 'Metabotropic glutamate receptor 8 (Rattus norvegicus)', -0.117),
  ('CC(C)C(=O)Nc1ccc(C(=O)N2CCCCCC2)cc1', 'Metabotropic glutamate receptor 8 (Rattus norvegicus)', 2.15),
  ('N#Cc1nc(COc2cccc(Cl)c2)oc1N1CCCC1', 'Metabotropic glutamate receptor 8 (Rattus norvegicus)', -0.382);

Q. Please report the recorded z-score for COC(=O)c1ccc(C(=O)OC)c(NC(=O)CSc2ccccn2)c1 .
A. -0.644

Q. Please report the recorded z-score for c1cc(-c2nnc3n2CCCCC3)ccn1 .
A. 0.91

Q. Please report the recorded z-score for CCOCc1nnc(NC(=O)c2cccs2)s1 .
A. 0.125
